From: patent US20240116985A1

Can you tell me NanoBRET Abs IC50 for the items I'm about to list?
STUDY TARGET: T1, B-cat-Halo (UniProt P35222 1-781)
T1 sequence (looked up): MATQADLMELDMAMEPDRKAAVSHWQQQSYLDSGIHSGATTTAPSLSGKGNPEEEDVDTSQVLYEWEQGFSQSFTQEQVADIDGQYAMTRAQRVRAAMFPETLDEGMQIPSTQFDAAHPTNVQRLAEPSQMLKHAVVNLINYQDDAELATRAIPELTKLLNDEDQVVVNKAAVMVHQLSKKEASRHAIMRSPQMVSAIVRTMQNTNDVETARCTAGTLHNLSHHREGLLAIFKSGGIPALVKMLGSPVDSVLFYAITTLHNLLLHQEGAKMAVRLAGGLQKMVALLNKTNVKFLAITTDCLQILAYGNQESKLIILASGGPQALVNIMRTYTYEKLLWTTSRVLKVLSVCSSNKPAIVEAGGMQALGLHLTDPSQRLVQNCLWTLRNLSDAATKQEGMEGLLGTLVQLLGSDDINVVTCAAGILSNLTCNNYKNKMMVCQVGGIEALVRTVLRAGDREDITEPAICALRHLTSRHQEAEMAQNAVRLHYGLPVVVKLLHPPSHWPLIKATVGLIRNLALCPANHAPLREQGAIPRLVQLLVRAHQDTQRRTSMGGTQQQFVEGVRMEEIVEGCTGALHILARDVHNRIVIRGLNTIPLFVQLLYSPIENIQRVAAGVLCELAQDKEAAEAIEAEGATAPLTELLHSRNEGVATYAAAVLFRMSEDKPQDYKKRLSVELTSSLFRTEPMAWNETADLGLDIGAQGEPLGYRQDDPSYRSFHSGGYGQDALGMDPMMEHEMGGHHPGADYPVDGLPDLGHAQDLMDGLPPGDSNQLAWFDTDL
EXPERIMENT SUMMARY: cell-based or functional assay
Starred links: 1 amine or outer side, 2 acyl side, 3 side chain; linkers in the order of their positions; H or OH if unused. Positions of bridges follow the written chain, without caps; N, C: chain ends. Non-standard residues stand in square brackets, D forms with d. Primed or numbered codes have the meaning given here. B5(32) = 2-amino-2-(pent-4-en-1-yl)hept-6-enoic acid (bis-4-pentenylglycine, two alkene side chains), C=CCCCC(CCCC=C)(N[*:1])C(=O)[*:2]; B5(4) = 2,2-bis(4-pentenyl)glycine = 2-amino-2-(pent-4-en-1-yl)hept-6-enoic acid (stitching residue), C=CCCCC(CCCC=C)(N[*:1])C(=O)[*:2]; PyrS2 = (S)-3-amino-1-((pent-4-en-1-yloxy)carbonyl)pyrrolidine-3-carboxylic acid, C=CCCCOC(=O)N1CC[C@@](N[*:1])(C(=O)[*:2])C1; B5(3) = 2,2-bis(4-pentenyl)glycine (stitching residue), C=CCCCC(CCCC=C)(N[*:1])C(=O)[*:2]; B5(28) = 2,2-bis(4-pentenyl)glycine, C=CCCCC(CCCC=C)(N[*:1])C(=O)[*:2]; Phe(3-COOH) = N[C@@H](Cc1cccc(C(=O)O)c1)C(=O)O; Phe(2-CF3) = N[C@@H](Cc1ccccc1C(F)(F)F)C(=O)O; Phe(3,4-Me2) = Cc1ccc(C[C@H](N)C(=O)O)cc1C; Bta = N[C@@H](Cc1csc2ccccc12)C(=O)O; αAllylPro = C=CC[C@@]1(C(=O)O)CCCN1; tBuAla = CC(C)(C)C[C@H](N)C(=O)O; 3Thi = N[C@@H](Cc1ccsc1)C(=O)O; PyrS2(4) = not defined here; Aib = CC(C)(N)C(=O)O
Answers are plain numbers, in nM.

Go through the items and report each one's NanoBRET Abs IC50.
1. Ac-[αAllylPro]D[tBuAla][B5(28)]D[Phe(3-COOH)]QAFV[PyrS2][3Thi][34MeF]A-NH2 (staple 1-4, 4-11) [I-2292]
2. Ac-[αAllylPro]D[tBuAla][B5(3)]D[Phe(3-COOH)]AAFL[PyrS2(4)][3Thi][Bta]NA[Aib]A-NH2 (staple 1-4, 4-11; reading uncertain; also: printed as Ac-PL3-Asp-Npg-B5-Asp-3COOHF-Ala-Ala-Phe-Leu-PyrS2-3Thi-BztA-Asn-Ala-Aib-Ala-NH2) [I-2271]
3. Ac-[αAllylPro]D[tBuAla][B5(32)]D[Phe(3-COOH)]AAFL[PyrS2][3Thi][Bta]NALL-NH2 (staple 1-4, 4-11; also: earlier eluting staple isomer) [I-2277]
4. Ac-[αAllylPro]D[tBuAla][B5(4)]D[Phe(3-COOH)]AAFL[PyrS2][Phe(2-CF3)][Phe(3,4-Me2)]S-NH2 (staple 1-4, 4-11) [I-2293]

1. 2700
2. 2300
3. 2300
4. 5700
